Assign ELISA (OD450 nm) to each entry below.
# study-target: T1, hBCMA-ECD-Fc (fusion protein of human BCMA extracellular domain Met1-Ala54 and human IgG1 Fc fragment … (human, UniProt Q02223 1-54))
# T1 construct: range 1-54; also the immunogen; also called soluble extracellular domain of human BCMA; not shown: human IgG1 Fc fragment, Pro100-Lys330
# T1 sequence (looked up): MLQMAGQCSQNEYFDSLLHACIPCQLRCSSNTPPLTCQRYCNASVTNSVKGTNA
# protocol: ELISA, hybridoma supernatant
Answers are plain numbers, in OD450.

Worked cases, answers included:
Ask: Look up ELISA (OD450 nm) for this binder: hybridoma antibody 113B3F12 (mAb008) (antibody, IgG2b, V domains shown, murine hybridoma antibody, IgG2b,κ) VH: EVQLQQSGPVLVKPGASVKMSCKASGYTFTDYYMNWVKQSHGKSLEWIGVINPYNGGTDYNQKFKGKATLTVDKSSSTAYMELNSLTSEDSAVYYCARRRESYGTSYQGAYFDSWGQGTTLTVSS VL: DIQMTQTTSSLSASLGDRVTISCRASQDISNYLNWYQQKPDGTVKLLIYYTSRLHSGVPSRFSGSGSGTDYSLSISDLEQEDIATYFCQQVITLPWTFGGGTKLEIK
Result: 3.9

Ask: // ELISA (OD450 nm) lookup, key: hybridoma antibody 102A12H6 (mAb003) (antibody, IgG1, V domains shown, murine hybridoma antibody, IgG1,κ) VH: EVQLQQSGPELVKPGASVKISCKASGYSFTGYYMNWVKQSPEKSLEWIGEINSSTGGTTYNQKFKAKATMTVDKSSNTAYMELKSLTSEDSAVYYCRYYGSDWHFDVWGTGTTVTVSS VL: QIVLTQSPALMSASPGEKVTMTCSASSSVSYMYWYQQKPRSSPKPWIYLTSSLASGVPARFSGSGSGTSYSLTISTMEAEDAATYYCQQWSSDPLTFGAGTKLELK
Result: 3.6

Ask: Value lookup for ELISA (OD450 nm); key = hybridoma antibody 105C10F1 (mAb004) (antibody, IgG2b, V domains shown, murine hybridoma antibody, IgG2b,κ; re-named CP03; also called CP03) VH: EVKLLQSGGGLVQPGGSLKLSCAASGIDFSRYWMSWVRRAPGKGLEWIGEINPDSSTINYAPSLKDKFIISRDAAKNTLYLQMSKVRSEDTALYYCATLYYDYDGDYAMDYWGQGTSVTVSS VL: DIVMTPSQKFMSTSVGDRVSVTCKASQNVGTNVAWYQQKPGQSPKALIYSASYRYSGVPDRFTGSGSGTDFTLTISNVQSEDLAEYFCQHYNSYPFTFGSGTKLEIK
Result: 3.42

Further cases:
Ask: Given hybridoma antibody 6G10-1D7 (mAb001) (antibody, IgG1, V domains shown, tested as supernatant and purified; also called CP01) VH: EVQLQQSGPELVKPGASMKISCKASDYSFTDYIMTWVKQSHGKNLEWIGLINPYNGGTTYNQKFKDKATFTVDKSSTTAYMDLLSLTSEDSAVYYCARRGITTDYYTMDYWGQGTSVTVSS VL: DIVMTQSQRFMSTSVGDRVSITCKASQSVGTAVAWYQQTPGQFPKLLIYSTSNRYTGVPDRFTGSGSGTDFTLTISNMQSEDLADYFCQQYSTYPLTFGSGTKLELK , state its recorded ELISA (OD450 nm).
Result: 2.9

src = patent US20230181640A1
